assay: AUC in BALB/c mouse at 10 mg/kg, iv administered as single dose measured after 24 hrs by LC-ESI/MS analysis; format: ADME, organism-based; set-up: time < 24 hr, dose 10 mg/kg, route intravenous; conditions: in vivo
readout-kind: AUC at 24 h (ng·h/mL)
Field: numeric (ng·h/mL). Do not append units.

Look up AUC at 24 h: O=C(NCCCCCCCn1cc(-c2cccnc2)nn1)c1ccccc1-n1ccnn1
1620

---

biological target: Nicotinamide phosphoribosyltransferase (Mus musculus); assay: Inhibition of recombinant mouse wild-type NAMPT expressed in bacterial expression system using PRPP as substrate in presence of mouse NMNAT-3 measured for 1 hr by fluorescence assay
Sequence (Q99KQ4 whole entry): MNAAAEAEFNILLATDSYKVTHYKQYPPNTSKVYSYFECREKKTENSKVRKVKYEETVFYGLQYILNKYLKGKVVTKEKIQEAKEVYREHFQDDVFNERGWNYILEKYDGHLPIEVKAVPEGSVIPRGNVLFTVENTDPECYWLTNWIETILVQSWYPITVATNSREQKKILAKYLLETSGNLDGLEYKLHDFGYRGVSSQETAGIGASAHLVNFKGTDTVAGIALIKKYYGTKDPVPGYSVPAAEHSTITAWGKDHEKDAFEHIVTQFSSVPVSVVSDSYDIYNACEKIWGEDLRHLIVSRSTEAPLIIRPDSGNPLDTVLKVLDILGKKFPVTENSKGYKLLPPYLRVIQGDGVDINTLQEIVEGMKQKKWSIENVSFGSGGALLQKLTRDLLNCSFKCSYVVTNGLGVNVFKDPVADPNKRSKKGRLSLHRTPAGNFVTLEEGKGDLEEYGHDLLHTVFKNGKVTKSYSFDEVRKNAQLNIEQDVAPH
readout-kind: IC50 (nM)
Field: numeric (nM). Do not append units.

In [3]: df
Out[3]:
                               entry_smiles  units_of_measure  observed
0  O=C(NCCCCCCCn1cc(-c2cccnc2)nn1)c1ccccc1-n1cc(CN2CCCCC2)nn1                nM      17.1

Look up IC50: CN(C)Cc1cn(-c2ccccc2C(=O)NCCCCCCCn2cc(-c3cccnc3)nn2)nn1
42.4

Look up IC50: O=C(NCCCCCCCn1cc(-c2cccnc2)nn1)c1ccccc1-n1cc(CN2CCCC2)nn1
25.4

---

experiment: Clearance in BALB/c mouse at 10 mg/kg, iv administered as single dose measured after 24 hrs by LC-ESI/MS analysis; type: ADME, organism-based; conditions: in vivo
readout-kind: clearance (mL/min/kg)
Field: numeric (mL/min/kg). Do not append units.

Look up clearance: O=C(NCCCCCCCn1cc(-c2cccnc2)nn1)c1ccccc1-n1ccnn1
103

---

assay: Volume of distribution in BALB/c mouse at 10 mg/kg, iv administered as single dose measured after 24 hrs by LC-ESI/MS analysis; assay type: ADME, organism-based; conditions: in vivo
readout-kind: Vd
Provide a numeric answer, followed by its unit.

Look up Vd: O=C(NCCCCCCCn1cc(-c2cccnc2)nn1)c1ccccc1-n1ccnn1
31.3 L/kg

---

experiment: Kinetic aqueous solubility of the compound in 80:20 PBS/acetonitrile solution at 200 to 500 uM by HTS assay; assay type: physicochemical; conditions: read-out: Kinetic_solubility
readout-kind: solubility kinetic

Use the examples below as a reference point.
>>> print(df.to_string())
                               entry_smiles        readout_kind       observed
0  CN1CCN(Cc2cn(-c3ccccc3C(=O)NCCCCCCCn3cc(-c4cccnc4)nn3)nn2)CC1  solubility kinetic  200 to 500 µM
1  CN(C)Cc1cn(-c2ccccc2C(=O)NCCCCCCCn2cc(-c3cccnc3)nn2)nn1  solubility kinetic  200 to 500 µM
2  O=C(NCCCCCCCn1cc(-c2cccnc2)nn1)c1ccccc1-n1cc(CN2CCC(O)CC2)nn1  solubility kinetic  200 to 500 µM
3  O=C(NCCCCCCCn1cc(-c2cccnc2)nn1)c1ccccc1-n1cc(CN2CCOCC2)nn1  solubility kinetic  200 to 500 µM
4  O=C(NCCCCCCCn1cc(-c2cccnc2)nn1)c1ccccc1-n1cc(CN(CCO)CCO)nn1  solubility kinetic  200 to 500 µM

The record that follows has no solubility kinetic shown yet.
Look up solubility kinetic: O=C(NCCCCCCCn1cc(-c2cccnc2)nn1)c1ccccc1-n1cc(CN2CCCC2)nn1
200 to 500 µM
